Exercise: for every item that follows, state its recorded melting point.

COC1/C=C\C=C(/C)C(=O)NC2=CC(=O)C(NC(=O)c3cc(C)nn3C(C)(C)C)=C(CC(C)CC(OC)C(O)C(C)/C=C(\C)C1OC(N)=O)C2=O (centres unmarked) [Compound #561]	216 to 218 °C
CCOP(=O)(NCCCCNC1=C2CC(C)CC(OC)C(O)C(C)/C=C(\C)C(OC(N)=O)C(OC)/C=C\C=C(/C)C(=O)NC(=CC1=O)C2=O)OCC (centres unmarked)	94.8 to 96.2 °C
COC1/C=C\C=C(/C)C(=O)NC2=CC(=O)C(NC(=O)c3snnc3C)=C(CC(C)CC(OC)C(O)C(C)/C=C(\C)C1OC(N)=O)C2=O (centres unmarked)	157 to 159 °C

Dear colleague, could you please provide melting point for the compounds listed below?
1. COC1C=CC=C(C)C(=O)NC2=CC(=O)C(NCCCN3CCN(CCCNC4=C5CC(C)CC(OC)C(O)C(C)C=C(C)C(OC(N)=O)C(OC)C=CC=C(C)C(=O)NC(=CC4=O)C5=O)CC3)=C(CC(C)CC(OC)C(O)C(C)C=C(C)C1OC(N)=O)C2=O (centres unmarked) [Compound #207]
2. COC1/C=C\C=C(/C)C(=O)NC2=CC(=O)C(NC(=O)NCc3ccc(F)cc3)=C(CC(C)CC(OC)C(O)C(C)/C=C(\C)C1OC(N)=O)C2=O (centres unmarked)

162 °C
175 to 177 °C

Where do these numbers come from? They come from patent US7465718B2.
